biological target: Protein kinase C delta type (Homo sapiens); assay: Inhibition of [3H]PDBu binding to PKCdelta-C1B domain peptide (unknown origin)
Sequence (Q05655 whole entry, the tested form may be a part): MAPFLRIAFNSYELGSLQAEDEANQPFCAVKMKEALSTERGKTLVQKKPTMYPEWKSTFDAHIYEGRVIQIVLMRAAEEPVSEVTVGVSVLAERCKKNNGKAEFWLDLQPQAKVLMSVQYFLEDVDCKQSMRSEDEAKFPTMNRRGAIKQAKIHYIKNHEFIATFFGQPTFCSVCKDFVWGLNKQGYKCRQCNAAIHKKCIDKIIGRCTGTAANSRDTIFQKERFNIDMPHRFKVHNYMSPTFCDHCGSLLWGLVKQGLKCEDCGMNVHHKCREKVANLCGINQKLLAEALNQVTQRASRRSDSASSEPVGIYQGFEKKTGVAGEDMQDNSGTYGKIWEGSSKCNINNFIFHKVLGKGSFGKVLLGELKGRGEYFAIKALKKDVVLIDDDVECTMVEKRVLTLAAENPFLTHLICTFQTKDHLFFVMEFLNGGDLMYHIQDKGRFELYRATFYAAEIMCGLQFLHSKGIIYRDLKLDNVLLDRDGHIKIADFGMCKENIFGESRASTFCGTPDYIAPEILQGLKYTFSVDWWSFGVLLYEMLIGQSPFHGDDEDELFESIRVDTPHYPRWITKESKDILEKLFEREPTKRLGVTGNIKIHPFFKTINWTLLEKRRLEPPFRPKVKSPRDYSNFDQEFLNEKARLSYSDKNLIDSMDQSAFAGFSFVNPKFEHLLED
Catalogue of molecules with associated pKi
Value format note: pKi is -log10 of concentration (mol/L); just state the number.

# ITEM_SMILES, pKi
records = [
    ("CC1(C)CC[C@@H]2CC(=O)O[C@@H](CO)CC(=O)O[C@@H]3C[C@@H](CCCCc4c(Br)cc(Br)c(O)c4Br)O[C@@]1(C3)O2", 8.16),
    ("CC(=O)Nc1ccc(CCCC[C@@H]2C[C@@H]3C[C@@]4(O[C@H](CCC4(C)C)CC(=O)O[C@@H](CO)CC(=O)O3)O2)cc1O", 7.44),
    ("COc1cccc(CCCC[C@@H]2C[C@@H]3C[C@@]4(O[C@H](CCC4(C)C)CC(=O)O[C@@H](CO)CC(=O)O3)O2)c1", 8.01),
    ("CC1(C)CC[C@@H]2CC(=O)O[C@@H](CO)CC(=O)O[C@@H]3C[C@@H](CCCCc4ccc(I)c(O)c4)O[C@@]1(C3)O2", 8.89),
]

Now, please, on to the next molecule.
Challenge: Given the molecule CC(=O)Nc1ccc(O)cc1CCCC[C@@H]1C[C@@H]2C[C@@]3(O[C@H](CCC3(C)C)CC(=O)O[C@@H](CO)CC(=O)O2)O1 , what is its reported pKi?
Response given: 6.16
